Catalogue of Kd values
# Target entity: T1, human PCSK9 (human, UniProt Q8NBP7 31-692)
# T1 construct: also called hPCSK9
# T1 sequence (Q8NBP7 31-692 limits assumed): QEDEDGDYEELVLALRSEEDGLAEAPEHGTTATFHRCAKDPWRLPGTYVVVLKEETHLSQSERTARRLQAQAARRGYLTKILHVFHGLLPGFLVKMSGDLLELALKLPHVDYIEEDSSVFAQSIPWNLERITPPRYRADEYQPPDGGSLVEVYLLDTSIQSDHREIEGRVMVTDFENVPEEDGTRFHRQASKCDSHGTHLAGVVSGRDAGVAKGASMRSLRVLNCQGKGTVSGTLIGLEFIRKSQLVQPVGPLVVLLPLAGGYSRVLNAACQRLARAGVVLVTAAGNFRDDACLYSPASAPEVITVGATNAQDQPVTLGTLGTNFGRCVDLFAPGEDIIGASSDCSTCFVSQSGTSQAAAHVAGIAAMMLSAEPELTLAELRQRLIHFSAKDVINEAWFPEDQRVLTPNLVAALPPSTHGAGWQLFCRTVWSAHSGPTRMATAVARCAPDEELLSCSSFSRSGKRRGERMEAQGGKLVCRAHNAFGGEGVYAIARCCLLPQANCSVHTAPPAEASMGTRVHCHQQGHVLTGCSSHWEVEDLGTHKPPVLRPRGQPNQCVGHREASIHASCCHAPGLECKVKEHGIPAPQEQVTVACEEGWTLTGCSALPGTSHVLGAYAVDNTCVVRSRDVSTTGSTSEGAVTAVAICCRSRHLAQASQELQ
# Assay method text: Biacore (SPR), IgG2 captured, PCSK9 as analyte
Give a bare numeral; the unit nM is implied.

As a guide, the following entries are already answered.
| Binder | Property label | Unit annotation | Result |
| --- | --- | --- | --- |
| AX137 IgG2 (antibody, V domains shown) VH: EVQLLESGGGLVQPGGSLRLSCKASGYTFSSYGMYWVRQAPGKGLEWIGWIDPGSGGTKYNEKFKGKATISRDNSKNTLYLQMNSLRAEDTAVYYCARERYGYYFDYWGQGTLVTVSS VL: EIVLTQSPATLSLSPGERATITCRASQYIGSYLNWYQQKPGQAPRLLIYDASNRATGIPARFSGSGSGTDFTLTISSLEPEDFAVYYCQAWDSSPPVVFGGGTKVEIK | Kd | nM | 9.98 |
| AX212 IgG2 (antibody, V domains shown) VH: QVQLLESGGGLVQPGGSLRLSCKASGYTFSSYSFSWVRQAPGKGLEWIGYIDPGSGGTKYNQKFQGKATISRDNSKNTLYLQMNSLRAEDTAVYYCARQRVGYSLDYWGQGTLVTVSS VL: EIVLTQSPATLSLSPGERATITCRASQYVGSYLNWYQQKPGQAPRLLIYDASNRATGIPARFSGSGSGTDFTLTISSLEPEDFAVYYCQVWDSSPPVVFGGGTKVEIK | Kd | nM | 2.12 |
| AX210 IgG2 (antibody, V domains shown) VH: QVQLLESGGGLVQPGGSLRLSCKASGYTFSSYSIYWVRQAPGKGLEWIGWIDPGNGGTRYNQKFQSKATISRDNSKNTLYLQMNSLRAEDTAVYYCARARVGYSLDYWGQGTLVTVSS VL: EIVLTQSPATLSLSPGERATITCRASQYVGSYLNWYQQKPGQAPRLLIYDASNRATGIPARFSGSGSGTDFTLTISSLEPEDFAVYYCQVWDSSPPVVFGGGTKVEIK | Kd | nM | 2.64 |
| AX114 IgG2 (antibody, V domains shown) VH: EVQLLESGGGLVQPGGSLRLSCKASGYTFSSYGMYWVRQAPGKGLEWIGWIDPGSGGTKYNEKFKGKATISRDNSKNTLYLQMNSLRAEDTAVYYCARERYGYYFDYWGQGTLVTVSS VL: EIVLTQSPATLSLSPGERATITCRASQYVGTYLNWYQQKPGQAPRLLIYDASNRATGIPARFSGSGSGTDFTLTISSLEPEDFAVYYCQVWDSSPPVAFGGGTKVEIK | Kd | nM | 24 |
| AX213 IgG2 (antibody, V domains shown) VH: EVQLLESGGGLVQPGGSLRLSCKASGYTFSRYGINWVRQAPGKGLEWIGRIDPGNGGTRYNEKFKGKATISRDNSKNTLYLQMNSLRAEDTAVYYCARANDGYSFDYWGQGTLVTVSS VL: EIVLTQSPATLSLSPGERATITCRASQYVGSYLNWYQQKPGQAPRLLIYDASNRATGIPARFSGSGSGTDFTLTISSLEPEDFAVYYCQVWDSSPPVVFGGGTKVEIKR | Kd | nM | 2.07 |

stdin: Which measured Kd value corresponds to AX211 IgG2 (antibody, V domains shown) VH: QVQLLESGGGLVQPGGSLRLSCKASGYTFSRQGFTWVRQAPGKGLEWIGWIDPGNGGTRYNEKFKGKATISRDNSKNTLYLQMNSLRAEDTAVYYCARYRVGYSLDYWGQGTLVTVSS VL: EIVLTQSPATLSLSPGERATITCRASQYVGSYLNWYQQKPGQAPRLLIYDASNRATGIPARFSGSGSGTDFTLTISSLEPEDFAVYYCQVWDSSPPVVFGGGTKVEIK ?
stdout: 1.63
